Kindly state fraction unbound for each of the entries shown.
testName: Compound was tested for percent protein binding (PB) in dog
Assay type: ADME, organism-based, Canis lupus familiaris
experimentalSetup: read-out: PB (converted)
Hey, just send me the number, nothing else.

Given the molecule O=C(Cn1c(Cl)cnc(NCC(F)(F)c2cccc[n+]2[O-])c1=O)NCc1ncccc1Cl , what is its reported fraction unbound?
0.5

Need fraction unbound of O=C(Cn1c(Cl)cnc(NCC(F)(F)c2cccc[n+]2[O-])c1=O)NCc1ncccc1F , thanks.
0.2

Return reported fraction unbound; argument: O=C(Cn1c(Cl)cnc(NCC(F)(F)c2ccccn2)c1=O)NCc1ncccc1F
0.67

* * *

For each of the compounds below, state its half-life.
testName: Half life period after intravenous administration in dog
Format: ADME, organism-based, Canis lupus familiaris
experimentalSetup: in vivo
Express the result in h but write the number alone.

Return reported half-life; argument: O=C(Cn1c(Cl)cnc(NCC(F)(F)c2cccc[n+]2[O-])c1=O)NCc1ncccc1Cl
6

State the recorded half-life for this entry: O=C(Cn1c(Cl)cnc(NCC(F)(F)c2cccc[n+]2[O-])c1=O)NCc1ncccc1F
2.9

Item O=C(Cn1c(Cl)cnc(NCC(F)(F)c2ccccn2)c1=O)NCc1ncccc1F [DPOC-4088] has what recorded half-life?
4.5
